assay: gradient 5% acetonitrile 3 min, to 50% in 2 min, to 85% in 15 min, held 3 min, 100 µL/min; conditions: column: Zorbax Extend-C18 2.1 x 50 mm; eluents: water / acetonitrile, 0.1% formic acid
observed property: RP-LC retention time (s)

>>> quantitative_result("Cc1nnc2ccc(-c3noc(-c4ccccc4)n3)cn12")
867

P = CCCN(CC1CCOC1)C(=O)Nc1cccc(F)c1C (stereo not drawn)
Q = CCn1c(C(=O)NCc2ccc3c(c2)OCO3)cc2c(-c3cccs3)nn(-c3ccccc3)c21
[in] Between these two entries, P and Q , state which has the higher RP-LC retention time. Refer to your chosen entry by its label in the reply.
[out] Q
(Q: 1120 s, P: 758 s)

---

experiment: gradient 5% acetonitrile 3 min, to 50% in 2 min, to 85% in 15 min, held 3 min, 100 µL/min; conditions: column: Zorbax Extend-C18 2.1 x 50 mm; eluents: water / acetonitrile, 0.1% formic acid
observed property: RP-LC retention time (s)

Example cases with answers are listed next.
>>> quantitative_result("CC(=O)N1CCc2cc(N3CC(C(=O)Nc4ccc(C)cc4C)CC3=O)ccc21 (stereo unspecified)")
786
>>> quantitative_result("Cc1ccccc1NC(=O)Cn1c(C)nc2c(sc3nc(-c4ccccc4)ccc32)c1=O")
1060
>>> quantitative_result("O=C(CSc1cc(-n2cccn2)ncn1)Nc1cccc(Cl)c1F")
965
>>> quantitative_result("COc1ccc(-c2noc(Cn3ccn(-c4ccccc4)c(=O)c3=O)n2)cc1")
794

a = COc1cccc(-n2cc(C(=O)OCc3ccco3)c3ccccc3c2=O)c1
b = Clc1ccccc1-c1nc2ccccc2[nH]1
[in] # min-compare on RP-LC retention time between a and b Write down the label attached to your selection.
[out] b
(b: 663 s, a: 1100 s)

---

test: gradient 5% acetonitrile 3 min, to 50% in 2 min, to 85% in 15 min, held 3 min, 100 µL/min; conditions: column: Zorbax Extend-C18 2.1 x 50 mm; eluents: water / acetonitrile, 0.1% formic acid
observed property: RP-LC retention time (s)

>>> quantitative_result("CCn1cc(C(=O)Nc2ccc(F)c(F)c2)c(S(=O)(=O)N2CCC(C)CC2)n1")
1170

I = CC(C)N(Cc1ccccc1)C(=O)c1cc2c(=O)n3ccccc3nc2n1C
II = CCc1nc2ccccc2n1CC(=O)NCC(C)C
[in] Pick the one with the larger RP-LC retention time: I vs II The response must carry the label of the picked entry.
[out] I
(I: 884 s, II: 597 s)

I = N#Cc1cccc(NC(=O)CN2C(=O)NC(c3ccc(Cl)cc3)C3=C2COC3=O)c1 (configuration not stated)
II = CSc1ccc(-c2nc3cnccn3c2Nc2ccc(C)cc2Br)cc1
[in] So which one has the bigger RP-LC retention time here, I or II ? Indicate your choice by writing its label.
[out] II

a = CCOc1ccccc1N1CCN(Cc2nc3nc(C)cc(N4CCCC4)n3n2)CC1
b = Cc1ccc(-c2csc(NC(=O)c3cccs3)n2)cc1C
[in] In terms of reported RP-LC retention time, does a or b have the smaller number? Kindly give the label for the entry you pick.
[out] a

---

assay: gradient 5% acetonitrile 3 min, to 50% in 2 min, to 85% in 15 min, held 3 min, 100 µL/min; conditions: column: Zorbax Extend-C18 2.1 x 50 mm; eluents: water / acetonitrile, 0.1% formic acid
observed property: RP-LC retention time (s)

>>> quantitative_result("CCOc1ccc(CCNC(=O)C2CCCN(S(=O)(=O)N3CCC(C)CC3)C2)cc1 (stereo not drawn)")
1010
>>> quantitative_result("CC(C)NC(=O)c1ccc(OCC2CCCN2C(=O)c2ccoc2)cc1 (stereo not drawn)")
747
>>> quantitative_result("COc1ccc2nc(NC3=NCN(CCc4cccs4)CN3)nc(C)c2c1")
743

1 = CCOc1ccc(-c2cc3c(=O)n(Cc4nc(-c5ccccc5Br)no4)ncn3n2)cc1
2 = COCCNC(=O)Cc1c(C)n(Cc2ccccc2)c2nc(-c3ccccc3)nn2c1=O
[in] # returns the entry with the larger RP-LC retention time; inputs 1 and 2 Let me know the label of the one you choose.
[out] 1
(1: 1160 s, 2: 776 s)

---

test: gradient 5% acetonitrile 3 min, to 50% in 2 min, to 85% in 15 min, held 3 min, 100 µL/min; details: column: Zorbax Extend-C18 2.1 x 50 mm; eluents: water / acetonitrile, 0.1% formic acid
observed property: RP-LC retention time (s)

>>> quantitative_result("CC(=O)Nc1ccc(OCC(=O)NCc2cc(F)cc(F)c2)nc1")
672
>>> quantitative_result("CN(CC(=O)NC1CCCC1)S(=O)(=O)c1ccc2nc(-c3ccccc3)[nH]c2c1")
754
>>> quantitative_result("O=c1n(CCOc2ccc(F)cc2)nc2c(S(=O)(=O)N3CCCCCC3)cccn12")
744
>>> quantitative_result("COCCNC(=O)Cn1c(=O)n(-c2ccccc2)c2ncccc21")
634
>>> quantitative_result("Cc1ccc2nc(Cl)c3cc(C(=O)N4CCN(c5ccccn5)CC4)sc3c2c1")
719
>>> quantitative_result("COc1cccc(CN2C[C@@H]3C(=O)N(CCCN4CCCC4=O)C(=O)[C@@H]3C2)c1")
598
>>> quantitative_result("CCOC(=O)C1CCCN(C(=O)C2CCc3nc(N(CC)CC)ncc3C2)C1 (configuration not stated)")
620

---

assay: gradient 5% acetonitrile 3 min, to 50% in 2 min, to 85% in 15 min, held 3 min, 100 µL/min; settings: column: Zorbax Extend-C18 2.1 x 50 mm; eluents: water / acetonitrile, 0.1% formic acid
observed property: RP-LC retention time (s)

>>> quantitative_result("O=C(O)c1ccc(-c2c[nH]c3ncc(-c4ccccc4)cc23)cc1C1CCCC1")
700
>>> quantitative_result("CC(C)CC(=O)N1CCCC(C(=O)N2CCOCC2)C1 (stereo unspecified)")
628
>>> quantitative_result("Cc1ccc2c(c1)OCC(=O)N2Cc1nc(-c2cccc(C(F)(F)F)c2)no1")
919
>>> quantitative_result("COc1ccc(NC(=O)Cn2nc3nc(N4CCSCC4)ccn3c2=O)cc1OC")
639
>>> quantitative_result("Cc1ccc(S(=O)(=O)N2CCC(n3cnnc3C(C)C)CC2)c(C)c1")
784
>>> quantitative_result("O=C(Nc1ccc2c(c1)OCCO2)C(=O)c1cn(CC(=O)N2CCOCC2)c2ccccc12")
850

---

assay: gradient 5% acetonitrile 3 min, to 50% in 2 min, to 85% in 15 min, held 3 min, 100 µL/min; settings: column: Zorbax Extend-C18 2.1 x 50 mm; eluents: water / acetonitrile, 0.1% formic acid
observed property: RP-LC retention time (s)

>>> quantitative_result("Fc1ccc(OCc2nn3c(CSc4ccccc4)nnc3s2)cc1")
966
>>> quantitative_result("Cn1nc(C(=O)N2CCCC(c3nnc(-c4ccccc4F)s3)C2)ccc1=O (centres undefined)")
690
>>> quantitative_result("O=C(Cc1ccccc1F)NC1CCN(c2cc(-c3cccs3)[nH]n2)C1 (centres undefined)")
705
>>> quantitative_result("CCC1CN(CC(=O)NCCN(CC)CC)c2ccccc2S1 (centres undefined)")
680

---

assay: gradient 5% acetonitrile 3 min, to 50% in 2 min, to 85% in 15 min, held 3 min, 100 µL/min; conditions: column: Zorbax Extend-C18 2.1 x 50 mm; eluents: water / acetonitrile, 0.1% formic acid
observed property: RP-LC retention time (s)

>>> quantitative_result("Cc1ccc(C(=O)Nc2ccc(CN3CCN(C)CC3)c(C(F)(F)F)c2)cc1C#Cc1cnc2cccnn12")
812
>>> quantitative_result("O=C(NCc1ccccn1)C1CC(=O)N(c2n[nH]c3cc(Br)ccc23)C1 (stereo unspecified)")
600
>>> quantitative_result("CCN1CCN(c2ncnc3c2cnn3-c2ccccc2Cl)CC1")
582
>>> quantitative_result("Cc1cnc(C(=O)NC2C[C@H]3CC[C@@H](C2)N3C(=O)CCC2CCCC2)cn1 (stereo partly specified)")
762
>>> quantitative_result("O=C(Cc1ccccc1Cl)N1CCN(c2ccc3nncn3n2)CC1")
628
>>> quantitative_result("CC(C)c1nnc2n1CCN(C(=O)c1cc(-c3cccs3)[nH]n1)C2")
628

---

experiment: gradient 5% acetonitrile 3 min, to 50% in 2 min, to 85% in 15 min, held 3 min, 100 µL/min; settings: column: Zorbax Extend-C18 2.1 x 50 mm; eluents: water / acetonitrile, 0.1% formic acid
observed property: RP-LC retention time (s)

>>> quantitative_result("CCn1c(=O)c(N2CCN(S(=O)(=O)c3ccc4c(c3)CCC4)CC2)nc2ccncc21")
748
>>> quantitative_result("O=C(Cn1nc(N2CCOCC2)c2ccccc2c1=O)Nc1cccc(C(F)(F)F)c1")
894
>>> quantitative_result("COc1ccc(NC(=O)c2cc3c(=O)oc4ccccc4c3n2C)cc1OC")
850
>>> quantitative_result("CCN1CCCC1CNC(=O)C1CCN(S(=O)(=O)c2ccc3c(ccn3CC)c2)CC1 (stereo not drawn)")
664
>>> quantitative_result("COc1ccc(CN2C(=O)[C@H](OC)[C@@H]2C2=CCNCC2)cc1")
576
>>> quantitative_result("O=S(=O)(CCc1ccccc1)N1CCN(c2ccc3nncn3n2)CC1")
664
>>> quantitative_result("CCOC(=O)c1nc(NCc2cccc(OC)c2)c2ccccc2n1")
754
>>> quantitative_result("O=C1[C@H]2CN(Cc3ccc(F)cc3)C[C@H]2C(=O)N1CCc1ccccc1")
748
